molecular target: human SK3 channel (hKCa2.3) (Homo sapiens, UniProt Q9UGI6); test: Automated whole cell patch-clamp (QPatch 16 HT), inhibition of SK3 current; details: HEK-293 cells stably expressing hKCa2.3; symmetrical K+ solutions, free calcium 400 nM; effects normalized to N-methyl bicuculline
pIC50: −log10 of the molar value.
What pIC50 was measured for each of the following?

pIC50 for COC(=O)CN(C)C(=O)CC(Nc1nc2ccccc2[nH]1)c1cccc(C(F)(F)F)c1 (stereo not shown) [Example 57] is > 5.00

pIC50 for O=C(CC(Nc1nc2ccccc2[nH]1)c1cccc(OC(F)(F)F)c1)NCCOC(F)(F)F (stereo not shown) is > 5.00

pIC50 for CN(CC#N)C(=O)CC(Nc1nc2c(CCO)cccc2[nH]1)c1cccc(C(F)(F)F)c1 (stereo not shown) is 4.00 to 5.00

pIC50 for O=C(C(Nc1nc2ccccc2[nH]1)c1cccc(C(F)(F)F)c1)N1CCC1 (single isomer, unassigned; (+)) [Example 34a] is > 5.00

pIC50 for CN(CC#N)C(=O)CC(Nc1nc2ccccc2[nH]1)c1cccc(C(F)(F)F)c1 (single isomer, unassigned; (-)) [Example 56a] is > 5.00

pIC50 for COCCNC(=O)CC(Nc1nc2ccccc2[nH]1)c1cccc(SC2CCC2)c1 (stereo not shown) is > 5.00

pIC50 for CCN(CC#N)C(=O)CC(Nc1nc2c(CO)cccc2[nH]1)c1cccc(C(F)(F)F)c1 (stereo not shown) is 4.00 to 5.00

pIC50 for O=C(CC(Nc1nc2ccccc2[nH]1)c1cccc(C(F)(F)F)c1)N1CC[C@H](O)C1 (stereo partly shown) is 4.00 to 5.00

pIC50 for CCN(CCN(C)C)C(=O)CC(Nc1nc2ccccc2[nH]1)c1cccc(C(F)(F)F)c1 (stereo not shown) is 4.00 to 5.00

pIC50 for CN(C)CCN(C)C(=O)C(Nc1nc2ccccc2[nH]1)c1cccc(C(F)(F)F)c1 (stereo not shown) is 4.00 to 5.00

pIC50 for O=C(CC(Nc1nc2ccccc2[nH]1)c1cccc(C(F)(F)F)c1)N[C@H]1CCOC1 (stereo partly shown) is > 5.00

pIC50 for CN(CCCO)C(=O)CC(Nc1nc2ccccc2[nH]1)c1cccc(C(F)(F)F)c1 (stereo not shown) [Example 17] is > 5.00

pIC50 for O=C(CC(Nc1nc2ccccc2[nH]1)c1cccc(SC(F)(F)F)c1)NCCOC(F)(F)F (stereo not shown) is > 5.00

pIC50 for COCCNC(=O)CC(Nc1nc2ccccc2[nH]1)c1cc(C)c(F)c(C)c1 (stereo not shown) is > 5.00

pIC50 for CN(CCCO)C(=O)CC(Nc1nc2ccccc2[nH]1)c1cccc(C(F)(F)F)c1 (single isomer, unassigned; (-)) [Example 17a] is > 5.00

pIC50 for O=C(CC(Nc1nc2ccccc2[nH]1)c1cccc(C(F)(F)F)c1)NCCCO (stereo not shown) is 4.00 to 5.00

pIC50 for COCCNC(=O)CC(Nc1nc2ccccc2[nH]1)c1cccc(SC)c1 (stereo not shown) is > 5.00

pIC50 for NCCNC(=O)C(Nc1nc2ccccc2[nH]1)c1cccc(C(F)(F)F)c1 (stereo not shown) is 4.00 to 5.00

pIC50 for CCN(CCO)C(=O)CC(Nc1nc2c(CO)cccc2[nH]1)c1cccc(C(F)(F)F)c1 (stereo not shown) is 4.00 to 5.00

pIC50 for O=C(CC(Nc1nc2ccccc2[nH]1)c1cccc(C(F)(F)F)c1)NCCOCC(F)(F)F (stereo not shown) [Example 68] is > 5.00

pIC50 for C[N+]1(C)CCN(C(=O)C(Nc2nc3ccccc3[nH]2)c2cccc(C(F)(F)F)c2)CC1 (stereo not shown) is 4.00 to 5.00

pIC50 for COCCNC(=O)CC(Nc1nc2ccccc2[nH]1)c1cccc(C(F)(F)F)c1 (stereo not shown) [Example 42] is > 5.00

pIC50 for O=C(C(Nc1nc2ccccc2[nH]1)c1cccc(C(F)(F)F)c1)N1CCOCC1 (stereo not shown) is > 5.00

pIC50 for CCN(CCO)C(=O)C(Nc1nc2ccccc2[nH]1)c1cccc(C(F)(F)F)c1 (single isomer, unassigned; (+)) [Example 38b] is 4.00 to 5.00

pIC50 for O=C(CC(Nc1nc2ccccc2[nH]1)c1cccc(C(F)(F)F)c1)NCc1nc2ccccc2o1 (stereo not shown) is > 5.00

pIC50 for COCCNC(=O)CC(Nc1nc2ccccc2[nH]1)c1cccc(C(F)(F)F)c1 (single isomer, unassigned; (-)) [Example 42a] is > 5.00

pIC50 for O=C(CC(Nc1nc2ccccc2[nH]1)c1cccc(C(F)(F)F)c1)NCc1nccs1 (stereo not shown) is > 5.00

pIC50 for CCN(CCO)C(=O)C(Nc1nc2ccccc2[nH]1)c1cccc(C(F)(F)F)c1 (stereo not shown) [Example 38] is > 5.00

pIC50 for O=C(CC(Nc1nc2ccccc2[nH]1)c1cccc(C(F)(F)F)c1)NCCOCC(F)(F)F (single isomer, unassigned) [Example 68a] is > 5.00

pIC50 for Cn1ccnc1CNC(=O)CC(Nc1nc2ccccc2[nH]1)c1cccc(C(F)(F)F)c1 (stereo not shown) is 4.00 to 5.00

pIC50 for O=C(CC(Nc1nc2ccccc2[nH]1)c1cccc(C(F)(F)F)c1)NCC1COC1 (stereo not shown) is 4.00 to 5.00

----------
What pIC50 was measured for each of the following?
target: human SK3 channel (hKCa2.3) (Homo sapiens, UniProt Q9UGI6); construct: expressed in transfected cells; assay: Automated whole cell patch-clamp (QPatch 16 HT), inhibition of SK3 current; format: cell-based; settings: HEK-293 cells stably expressing hKCa2.3; symmetrical K+ solutions, free calcium 400 nM; effects normalized to N-methyl bicuculline
pIC50: −log10 of the molar value.

pIC50 for O=C(CC(Nc1nc2ccccc2[nH]1)c1cccc(C(F)(F)F)c1)N1CCC[C@@H](O)C1 (some centres unmarked) [Example 13] is 4.00 to 5.00

pIC50 for COCCNC(=O)CC(Nc1nc2ccccc2[nH]1)c1cccc(SC(F)(F)F)c1 (centres unmarked) [Example 82] is > 5.00

pIC50 for CN(C)CCN(C)C(=O)CC(Nc1nc2ccccc2[nH]1)c1cccc(C(F)(F)F)c1 (centres unmarked) [Example 2] is 4.00 to 5.00

pIC50 for CCN(CC#N)C(=O)CC(Nc1nc2c(CCO)cccc2[nH]1)c1cccc(C(F)(F)F)c1 (centres unmarked) [Example 52] is 4.00 to 5.00

pIC50 for Cc1cc(C(CC(=O)NCC#N)Nc2nc3ccccc3[nH]2)cc(C)c1F (centres unmarked) [Example 86] is > 5.00

pIC50 for CN(C)C1CN(C(=O)C(Nc2nc3ccccc3[nH]2)c2cccc(C(F)(F)F)c2)C1 (centres unmarked) [Example 28] is 4.00 to 5.00

pIC50 for COCCNC(=O)CC(Nc1nc2c(OC)cccc2[nH]1)c1cccc(C(F)(F)F)c1 (centres unmarked) [Example 93] is > 5.00

pIC50 for CC(C)(O)CNC(=O)CC(Nc1nc2ccccc2[nH]1)c1cccc(C(F)(F)F)c1 (single isomer, unassigned; (-)) [Example 4a] is 4.00 to 5.00

----------
Target: human SK3 channel (hKCa2.3) (Homo sapiens, UniProt Q9UGI6)
Assay: Automated whole cell patch-clamp (QPatch 16 HT), inhibition of SK3 current
Conditions: HEK-293 cells stably expressing hKCa2.3; symmetrical K+ solutions, free calcium 400 nM; effects normalized to N-methyl bicuculline
Protocol: Automated whole cell patch-clamp recordings were performed using a QPatch 16 HT system and single-hole Qplates (Biolin Scientific, Sophion, Denmark) on HEK-293 cells stably expressing the human SK3 channel (hKCa2.3). Cells were cultured and prepared for experiments using normal cell culturing procedures. […] The free calcium concentration was calculated to 400 nM. […] Potency was quantified as the concentration needed to inhibit half of the SK channel activity and reported as an IC50 value. […]
Endpoint label: IC50

IC50 for COC(=O)[C@@H](C)NC(=O)CC(Nc1nc2ccccc2[nH]1)c1cccc(C(F)(F)F)c1 (stereo partly shown) is < 10 µM

IC50 for CN(CC#N)C(=O)CC(Nc1nc2c(CO)cccc2[nH]1)c1cccc(C(F)(F)F)c1 (stereo not shown) is 10 to 100 µM

IC50 for COCCN(C)C(=O)CC(Nc1nc2ccccc2[nH]1)c1cccc(C(F)(F)F)c1 (stereo not shown) is < 10 µM

IC50 for O=C(CC(Nc1nc2ccccc2[nH]1)c1cccc(C(F)(F)F)c1)NC1COC1 (stereo not shown) is < 10 µM

IC50 for N#CCNC(=O)CC(Nc1nc2ccccc2[nH]1)c1cccc(OC(F)(F)F)c1 (stereo not shown) is < 10 µM

IC50 for COC(=O)CNC(=O)CC(Nc1nc2ccccc2[nH]1)c1cccc(C(F)(F)F)c1 (single isomer, unassigned; (-)) [Example 59a] is < 10 µM

IC50 for CCN(CCO)C(=O)CC(Nc1nc2ccccc2[nH]1)c1ccc(C)c(Cl)c1 (stereo not shown) is < 10 µM

IC50 for O=C(CC(Nc1nc2ccccc2[nH]1)c1cccc(OC(F)(F)F)c1)NCc1nc2ccccc2o1 (stereo not shown) is < 10 µM

IC50 for O=C(CC(Nc1nc2ccccc2[nH]1)c1cccc(C(F)(F)F)c1)NCc1ncco1 (stereo not shown) is < 10 µM

IC50 for O=C(CC(Nc1nc2c(CO)cccc2[nH]1)c1cccc(C(F)(F)F)c1)NCCOC(F)(F)F (stereo not shown) is < 10 µM

IC50 for O=C(CC(Nc1nc2ccccc2[nH]1)c1cccc(OC(F)(F)F)c1)NCc1ccon1 (stereo not shown) is < 10 µM

IC50 for CCN(CCO)C(=O)CC(Nc1nc2ccccc2[nH]1)c1ccc(Cl)c(C)c1 (single isomer, unassigned; (+)) [Example 40b] is 10 to 100 µM

IC50 for COCCNC(=O)CC(Nc1nc2cc(F)c(F)cc2[nH]1)c1cccc(C(F)(F)F)c1 (stereo not shown) is 10 to 100 µM

IC50 for CCN(CC#N)C(=O)CC(Nc1nc2ccccc2[nH]1)c1cccc(C(F)(F)F)c1 (stereo not shown) is < 10 µM

IC50 for COC(=O)N1CCN(C(=O)C(Nc2nc3ccccc3[nH]2)c2cccc(C(F)(F)F)c2)CC1 (stereo not shown) is < 10 µM

IC50 for CCN(CCO)C(=O)CC(Nc1nc2ccccc2[nH]1)c1cccc(C(F)(F)F)c1 (stereo not shown) [Example 41] is < 10 µM

IC50 for O=C(C(Nc1nc2ccccc2[nH]1)c1cccc(C(F)(F)F)c1)N1CCCC1 (stereo not shown) is < 10 µM

IC50 for Cc1ncc(CNC(=O)CC(Nc2nc3ccccc3[nH]2)c2cccc(C(F)(F)F)c2)s1 (stereo not shown) is < 10 µM

IC50 for COCCNC(=O)CC(C)(Nc1nc2cc(F)ccc2[nH]1)c1cccc(C(F)(F)F)c1 (stereo not shown) is < 10 µM

IC50 for CN(CC#N)C(=O)CC(Nc1nc2ccccc2[nH]1)c1cccc(C(F)(F)F)c1 (stereo not shown) [Example 56] is < 10 µM

IC50 for CN(CC(N)=O)C(=O)CC(Nc1nc2ccccc2[nH]1)c1cccc(C(F)(F)F)c1 (stereo not shown) is 10 to 100 µM

IC50 for O=C(C(Nc1nc2ccccc2[nH]1)c1cccc(C(F)(F)F)c1)N1CC2(COC2)C1 (stereo not shown) is 10 to 100 µM

IC50 for COCCNC(=O)CC(Nc1nc2ccccc2[nH]1)c1cccc(OC(F)(F)F)c1 (stereo not shown) is < 10 µM

IC50 for CCN(CCO)C(=O)C(Cc1cccc(C(F)(F)F)c1)Nc1nc2ccccc2[nH]1 (stereo not shown) is 10 to 100 µM

IC50 for COC[C@H](NC(=O)CC(Nc1nc2ccccc2[nH]1)c1cccc(SC(F)(F)F)c1)c1ccccc1 (single isomer, unassigned) [Example 70a] is < 10 µM

IC50 for O=C(C(Nc1nc2ccccc2[nH]1)c1cccc(C(F)(F)F)c1)N1CCNCC1 (stereo not shown) is 10 to 100 µM

IC50 for O=C(NC1COC1)C(Nc1nc2ccccc2[nH]1)c1cccc(C(F)(F)F)c1 (stereo not shown) is 10 to 100 µM

IC50 for CCN(CCO)C(=O)CC(Nc1nc2ccccc2[nH]1)c1ccc(F)c(C)c1 (single isomer, unassigned; (-)) [Example 39a] is < 10 µM

IC50 for CCN(CCO)C(=O)C(Nc1nc2ccccc2[nH]1)c1cccc(C(F)(F)F)c1 (single isomer, unassigned; (-)) [Example 38a] is < 10 µM

IC50 for O=C(CC(Nc1nc2ccccc2[nH]1)c1cccc(C(F)(F)F)c1)NCCNS(=O)(=O)Cc1ccccc1 (stereo not shown) is 10 to 100 µM

IC50 for O=C(CC(Nc1nc2ccccc2[nH]1)c1cccc(C(F)(F)F)c1)NCCOC(F)(F)F (single isomer, unassigned) [Example 67a] is < 10 µM

Numbers sourced from patent US11274092B2.
